Target Desc: T1, GFP-9S library array, motif 4 ND N98F;D124P (synthetic construct, N98F;D124P)
T1 chain: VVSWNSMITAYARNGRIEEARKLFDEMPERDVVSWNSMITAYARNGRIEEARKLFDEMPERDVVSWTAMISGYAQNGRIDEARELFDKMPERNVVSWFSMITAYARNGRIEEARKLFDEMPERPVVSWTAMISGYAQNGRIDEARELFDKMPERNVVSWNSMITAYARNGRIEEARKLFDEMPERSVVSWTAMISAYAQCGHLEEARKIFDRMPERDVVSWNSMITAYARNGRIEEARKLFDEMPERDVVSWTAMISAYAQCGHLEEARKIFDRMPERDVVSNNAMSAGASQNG
Procedure Details: high-throughput RNA pulldown from lysate on Ni-NTA beads; HRP: 50 mM Tris pH 8, 150 mM NaCl, 1 mM beta-mercaptoethanol, 50 ug/ml BSA, 3 ug/ml yeast RNA, 0.5% heparin; ITC and FP: Tris pH 8, 200 mM KCl, 5% glycerol; MST: 50 mM Tris pH 8, 200 mM NaCl, 1 mM DTT, BSA, heparin, 0.05% Tween 20
Recorded Conditions: tags: N-terminal His-eGFP; label: 5' IRDye 800CW
Readout: Kd (nM)
Record the value in nM, omitting the unit from your answer.

AUUAUACGUGA (ssRNA) [IR-rpoA-U] = 196

Let us move to another entry and its Kd.
Exam item: Param item = AUUAAACGUGA (ssRNA) [IR-rpoA-A] ; retrieve measured Kd.
Marked response: 393
